Give measured EC50 (read off the curve) for each item. Keep answers brief.
tested.system: T1, human PVRIG on FlpinCHO-PVRIG cells (human, UniProt Q6DKI7 41-326)
T1 construct: whole, on cells; also called FlpinCHO-hPVRIG; FlpinCHO-human PVRIG
T1 sequence (looked up): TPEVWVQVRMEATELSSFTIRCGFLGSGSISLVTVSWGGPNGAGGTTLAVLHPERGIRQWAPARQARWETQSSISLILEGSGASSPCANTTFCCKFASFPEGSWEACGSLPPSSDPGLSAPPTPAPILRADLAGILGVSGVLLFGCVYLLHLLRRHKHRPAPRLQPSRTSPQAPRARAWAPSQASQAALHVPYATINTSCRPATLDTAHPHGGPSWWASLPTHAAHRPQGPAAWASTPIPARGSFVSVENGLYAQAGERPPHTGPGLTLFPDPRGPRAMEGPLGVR
assay.explanation: FACS, FlpinCHO-PVRIG cells

Solved cases below.
binder	quantity.measured	result
PVRIG-A50 (VHH, tested as VHH-hinge-CH2-CH3 (human IgG1-Fc); not shown: human IgG1 hinge-CH2-CH3) VHH: EVQLVESGGGLVQPGGSLRLSCAASGFTFSYYDMSWVRQAPGKGLEWVSTINSNGGRTSYVDSVKGRFTISRDNTKNTLYLQMNSLKPEDTAVYYCVEGDPHNFGLENLSLRDFGSWGQGTQVTVSS	EC50 (read off the curve)	~0.7 nM
PVRIG-A105 (VHH, tested as VHH-hinge-CH2-CH3 (human IgG1-Fc); not shown: human IgG1 hinge-CH2-CH3) VHH: EVQLVESGGGLVQAGGSLRLSCAASGRTFDRHTMTWFRQAPGKEREFVATASRIPGDTYYSHSVKGRFTISRDNAKNTVYLQLNNLKPEDTAVYYCAATSAYCSEVDCYEKGSWYDNWGQGIQVTVSS	EC50 (read off the curve)	~0.4 nM
PVRIG-A118 (VHH, tested as VHH-hinge-CH2-CH3 (human IgG1-Fc); not shown: human IgG1 hinge-CH2-CH3) VHH: QVQLVESGGGLVQAGGSLRLSCAASETYFDLYVMGWYRQAPGKDRELVATITYTGSIKIVDSVKDRFTISRGDAKNTVSLQMSSLKPEDTAVYFCNADPSGLGRKVYWGQGTQVTVSS	EC50 (read off the curve)	~0.2 nM
PVRIG-A11 (VHH, tested as VHH-hinge-CH2-CH3 (human IgG1-Fc); not shown: human IgG1 hinge-CH2-CH3) VHH: QLQLVESGGGLVQPGGSLRLSCAASGFTDDYYAIGWFRQAPGKEREGVSCISGSGGSTNYEDSVKGRFAISRDNAKNMVYLQMNDLKPEDTAVYYCAADPFWSAPCTGHNDRYFDVWGQGTLVTVSS	EC50 (read off the curve)	~0.1 nM

Below: the item to evaluate.
QUERY: So what does the record say about EC50 (read off the curve) for PVRIG-A117 (VHH, tested as VHH-hinge-CH2-CH3 (human IgG1-Fc); not shown: human IgG1 hinge-CH2-CH3) VHH: EVQVVESGGGLVQAGGSLRLSCTASEHIYDLYIMGWYRQAPGKDRELVATITYTGSIYIADSVKDRFTISRGNAKNTVSLQMSGLKPEDTAVYYCNADPSGLGRKLYWGQGTQVTVSS ?
RESULT: ~0.3 nM
